Experiment: Solubility of PMIDA in water and HCl at various temperatures and pressures
Format: physicochemical
Details: 15% HCl, 93.3 °C, aqueous buffer, thermodynamic from solid, 200 psi, 200° F.
Measured Metric: solubility thermodynamic (mg/mL)

Cpd Smiles | Measured Value
O=C(O)CN(CC(=O)O)CP(=O)(O)O | 203

----------
Test: Solubility of PMIDA in water and HCl at various temperatures and pressures
Type: physicochemical
Settings: 10% HCl, 37.8 °C, aqueous buffer, thermodynamic from solid, Atm., 100° F.
Measured Metric: solubility thermodynamic

Cpd Smiles | Measured Metric | Measured Value
O=C(O)CN(CC(=O)O)CP(=O)(O)O | solubility thermodynamic | 20 mg/mL
